- Measured target: [^3 H]-spiroperidol binding (Homo sapiens, UniProt P14416)
- Construct: from tissue; own knowledge of the cited 1985 method, which predates the cloning of D2)
- Sequence (P14416 whole entry): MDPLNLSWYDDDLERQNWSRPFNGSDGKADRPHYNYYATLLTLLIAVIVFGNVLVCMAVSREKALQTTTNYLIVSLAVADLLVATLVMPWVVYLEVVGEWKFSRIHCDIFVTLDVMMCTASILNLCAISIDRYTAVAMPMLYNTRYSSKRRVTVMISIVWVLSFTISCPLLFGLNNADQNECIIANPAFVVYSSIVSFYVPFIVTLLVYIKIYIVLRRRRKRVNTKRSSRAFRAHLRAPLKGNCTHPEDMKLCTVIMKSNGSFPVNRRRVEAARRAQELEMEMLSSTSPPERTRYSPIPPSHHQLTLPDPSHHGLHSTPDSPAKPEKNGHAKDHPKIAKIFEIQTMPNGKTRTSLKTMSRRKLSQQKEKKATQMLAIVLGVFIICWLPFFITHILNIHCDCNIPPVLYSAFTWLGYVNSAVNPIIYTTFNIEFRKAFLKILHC
- Protocol text: Inhibition of [^3 H]-spiroperidol binding in a receptor assay
- Measurement context: [^3 H]spiroperidol, receptor assay; read-out: Inhibition of [^3 H]Spiroperidol Binding IC50
Counter-ions that a name gives are not always drawn.
Measured attribute: IC50 (nM)

// known answers, use as guide
>  <Compound>
c1ccc(N2CCN(CC[C@H]3CC[C@@H](c4c[nH]c5ccccc54)CC3)CC2)nc1

>  <Result number>
193

$$$$
>  <Compound>
c1cnc(N2CCN(CC[C@H]3CC[C@@H](c4c[nH]c5ccccc54)CC3)CC2)nc1 [Example 4, hydrochloride]

>  <Result number>
349

$$$$
>  <Compound>
C1=C(c2cccs2)CCN(CC[C@H]2CC[C@H](c3c[nH]c4ccccc43)CC2)C1

>  <Result number>
878

$$$$
>  <Compound>
C1=C(c2c[nH]c3ccccc23)CCC(CCN2CCN(c3ccccn3)CC2)C1 (stereo not drawn)

>  <Result number>
270

$$$$

(1) c1ccc(N2CCN(CC[C@H]3CC[C@H](c4c[nH]c5ccccc54)CC3)CC2)nc1
(2) c1cnc(N2CCN(CC[C@H]3CC[C@H](c4c[nH]c5ccccc54)CC3)CC2)nc1 [Example 3, hydrochloride]
Asked: # query: argmin of IC50 over 1 and 2 Lab note: record the label of whichever item you select.
Given back: 1
(1: 69.8 nM, 2: 224 nM)
